- experimental_target: T1, FcRn-p3 fusion protein (human, UniProt P55899 24-297; P61769 21-119)
- T1 construct: baculovirus expressed; coated on ELISA wells; not shown: amino terminal part of bacteriophage p3 protein and CVDE protein
- T1 sequence (P55899 24-297, chain 1 of 2): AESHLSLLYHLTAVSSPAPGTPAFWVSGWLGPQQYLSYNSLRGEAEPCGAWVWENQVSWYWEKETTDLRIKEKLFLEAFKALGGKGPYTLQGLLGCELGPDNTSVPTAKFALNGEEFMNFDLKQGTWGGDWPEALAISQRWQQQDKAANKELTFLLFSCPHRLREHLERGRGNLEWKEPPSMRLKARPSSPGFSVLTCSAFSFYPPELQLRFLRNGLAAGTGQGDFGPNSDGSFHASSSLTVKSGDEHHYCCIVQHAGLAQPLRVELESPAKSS
- T1 sequence (P61769 21-119, chain 2 of 2): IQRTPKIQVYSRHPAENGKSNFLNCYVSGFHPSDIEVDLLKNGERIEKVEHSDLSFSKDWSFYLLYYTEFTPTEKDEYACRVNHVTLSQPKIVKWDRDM
- experiment_summary: phage ELISA pH6
observable: Ratio/Fc-H
Answer format: number, then unit.

Check out these entries, answers already filled in.
{"binder": "C5A_39 (other, EU numbering) CPPCPAPELLGGPSVFLFPPKPKDTLMISRTPEVTCVVVDVSHEDPEVKFNWYVDGVEVHNAKTEPREEQYNSTYRVVSVLTVLHQDWLDGKEYKCKVSNKALPAPIEKTISKAKGRPREPQVYTLPPSRDELTKNQVSLTCLVKGFYPSDIAVEWVSNGQPENNYKTTPPVLDSDGSFFLYSKLTVDKSRWQQGNVFSCSVMHEALHYHYTQKSLSLSPGK", "Ratio/Fc-H": "5 fold"}
{"binder": "C5A_09 (other, EU numbering) CPPCPAPELLGGPSVLLFPPKPKDTLMISRTPEVTCVVEDVSHEDPEVKFNWYVDGVEVHNAKTKPREEQYNSTYRVVSVLPVLHQDWLNGKEYKCKVSNKALPAPIEKTISKAKGQPREPQVYTLPPSRDELTKNQVSLTCLVKGFYPSDIVVEWESNGQPENNYKTTPPVLDSDGSFFLYSKLTVDKSRWQQGNVFSCSVMHEALHSHYTQKSLSLSPGK", "Ratio/Fc-H": "4.8 fold"}

Shifting focus to the binder that follows.
// field: Ratio/Fc-H; key: T5A_81 (other, EU numbering) CPPCPAPELLGGPSVFLFPPKPKDTLMISRTPEVTCVVEDVSHEDPEVKFNWYVDGVEVHNAKTKPREEQYNSTYRVVSVLTVLHQDWLNGKEYKCKVSNKALPAPIEKTISKAKGQPREPQVYTLPPSRDELTKNQVSLTCLVKGFYPSDIVVEWESNGQPENNYKTTPPVLDSDGSFFLYSKLTVDKSKWQQGNVFSCSVMHEALHNHYTQKSLSLSPGK ; value = 4.6 fold
